- Test system: parent strain (SAWy518)
experimental_endpoint: Offscreen_18hr

// field: Offscreen_18hr; key: "COc1cc(C)c2c(=O)cc(-c3ccccc3)oc2c1" ; value = 0.7685

// field: Offscreen_18hr; key: "CO[C@H]1C[C@@H]2CC[C@@H](C)[C@@](O)(O2)C(=O)C(=O)N2CCCC[C@H]2C(=O)O[C@H]([C@H](C)C[C@@H]2CC[C@@H](OC(=O)C(C)(CO)CO)[C@H](OC)C2)CC(=O)[C@H](C)/C=C(\C)[C@@H](O)[C@@H](OC)C(=O)[C@H](C)C[C@H](C)/C=C/C=C/C=C/1C" ; value = 0.0544

// field: Offscreen_18hr; key: "Oc1ccc(Cl)cc1Cc1cc(Cl)ccc1O" ; value = 0.5869

// field: Offscreen_18hr; key: "O=C1Nc2ccc(Cl)cc2[C@@](C#CC2CC2)(C(F)(F)F)O1" ; value = 0.7812

// field: Offscreen_18hr; key: CC1=C(C)C(=O)C(C(CCCCCC(=O)O)c2ccccc2)=C(C)C1=O (stereo not shown) ; value = 0.7584

// field: Offscreen_18hr; key: O=C(O)Cc1ccccc1Nc1c(Cl)cccc1Cl [Diclofenac, reference compound] ; value = 0.8139

// field: Offscreen_18hr; key: CCOc1nc2cccc(C(=O)OC(C)OC(=O)OC3CCCCC3)c2n1Cc1ccc(-c2ccccc2-c2nnn[nH]2)cc1 (stereo not shown) ; value = 0.7916

// field: Offscreen_18hr; key: CC(C)(C)C(=O)C(Oc1ccc(Cl)cc1)n1cncn1 (stereo not shown) ; value = 0.0626

// field: Offscreen_18hr; key: "COC1=C(CC=C(C)C)C(=O)c2ccccc2C1=O" ; value = 0.8193

// field: Offscreen_18hr; key: "O=[N+]([O-])c1ccc(CNc2nc(NCc3cccc(C(F)(F)F)c3)nc3[nH]cnc23)cc1" ; value = 0.8029

// field: Offscreen_18hr; key: CC(C)(Oc1ccc(C2CC2(Cl)Cl)cc1)C(=O)O (stereo not shown) [Ciprofibrate] ; value = 0.7456

// field: Offscreen_18hr; key: CCN(CC)C(=S)SSC(=S)N(CC)CC [Tetraethylthiuram disulfide] ; value = 0.0416

// field: Offscreen_18hr; key: C=CC(C1=CC(=O)C=CC1=O)c1ccccc1 (stereo not shown) ; value = 0.8417

// field: Offscreen_18hr; key: C=CC(C1=CC(=O)C(OC)=CC1=O)c1ccc(O)cc1 (stereo not shown) [Dalbergione,4-methoxy-4-hydroxy-] ; value = 0.8261

// field: Offscreen_18hr; key: "CC1(C)C=Cc2c(c3c(c4c(=O)c(-c5ccc(O)c(O)c5)coc24)OC(C)(C)CC3)O1" ; value = 0.7653

// field: Offscreen_18hr; key: COc1c(C)c2c(c(O)c1C/C=C(\C)CCC(=O)O)C(=O)OC2 [MYCOPHENOLIC ACID] ; value = 0.6454
